Assay: Half life in CD1 mouse brain at 30 mg/kg, ip by LC-MS/MS analysis
Type: ADME, organism-based
VALUE_TYPE: half-life

compound="O=C(CCc1ccc2c(c1)[nH]c1ccncc12)NCCOCCOCCNc1cccc2c1C(=O)N(C1CCC(=O)NC1=O)C2=O (stereo unspecified)" value_type=half-life assay_result="46 min"
